// data source = patent US20220296595A1

- System name: CDK4/CyclinD1 (Homo sapiens)
- Construct: purchased Thermofisher PR8064A
- Sequence (P11802 whole entry): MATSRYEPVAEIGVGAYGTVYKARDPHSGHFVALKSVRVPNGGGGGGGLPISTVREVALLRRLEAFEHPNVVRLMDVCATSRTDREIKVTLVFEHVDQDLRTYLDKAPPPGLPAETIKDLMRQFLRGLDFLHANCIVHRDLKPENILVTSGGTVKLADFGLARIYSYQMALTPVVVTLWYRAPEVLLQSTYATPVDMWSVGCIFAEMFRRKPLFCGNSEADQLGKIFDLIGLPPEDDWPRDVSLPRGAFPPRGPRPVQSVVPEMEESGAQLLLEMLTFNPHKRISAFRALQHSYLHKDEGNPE
- Sequence (P24385 whole entry partner): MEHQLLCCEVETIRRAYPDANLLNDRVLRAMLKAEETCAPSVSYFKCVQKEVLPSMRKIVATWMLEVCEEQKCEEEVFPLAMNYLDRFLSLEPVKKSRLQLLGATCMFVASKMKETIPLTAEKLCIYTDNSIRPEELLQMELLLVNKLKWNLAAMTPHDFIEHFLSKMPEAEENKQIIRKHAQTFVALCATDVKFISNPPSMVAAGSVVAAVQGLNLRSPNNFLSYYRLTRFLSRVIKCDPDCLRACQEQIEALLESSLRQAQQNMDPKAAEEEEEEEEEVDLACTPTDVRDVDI
- Assay notes: Assay for inhibition of CDK4/CyclinD1 (Caliper microfluidic kinase assay)
- Format: biochemical
- Condition summary: CDK4/CyclinD1, 200 μM ATP
pIC50: −log10 of the molar value.
Readout label: pIC50

INSERT INTO assay_data (compound, measured_result) VALUES
  ('CC(C)c1cnn2ccc(-c3ccnc(Nc4ccc(S(N)(=O)=O)cc4)n3)cc12', '7.00 to 8.00'),
  ('CC(C)(C)c1cnn2ccc(-c3ccnc(Nc4ccc(N5CCCC(N)C5=O)cc4)n3)cc12 (stereo not drawn)', '> 8.00'),
  ('CC1(C)COc2c(F)cc(-c3ccnc(Nc4ccc(N5CCCC(N)C5=O)nc4)n3)cc21 (stereo not drawn)', '> 8.00'),
  ('CC1(N)CCN(c2ccc(Nc3nccc(-c4ccn5ncc(C(C)(C)C)c5c4)n3)nc2)C(=O)C1 (stereo not drawn)', '> 8.00');

Requested read-out: pIC50. Entry: `CC(C)c1cnn2ccc(-c3nc(Nc4ccc(N5CCOCC5)cn4)ncc3F)cc12`
7.00 to 8.00

// pIC50 lookup, key: `CC(C)c1cnn2ccc(-c3ccnc(Nc4ccc(C(=O)N(C)C)cc4)n3)cc12`
> 8.00

What pIC50 value was documented for this compound, `CC(C)n1cnc2c1CN(c1nc(Nc3ccc(N4CCCNC4=O)cc3)ncc1F)CC2` ?
> 8.00

pIC50 for CC(C)c1cnn2ccc(-c3ccnc(Nc4ccc(N5CC(N(C)C)CCC5=O)cn4)n3)cc12 (stereo not drawn) ?
7.00 to 8.00

# input compound: `COc1nc(-c2ccnc(Nc3ccc(N4CCNCC4=O)cc3F)n2)cc2c1ncn2C(C)C` ; wanted: its pIC50
> 8.00

// returns reported pIC50 for input CC(C)N1CCN(c2ccc(Nc3nccc(-c4cc5c(ncn5C(C)C)c(F)n4)n3)nc2)CC1 [Synthetic Example 287]
> 8.00

Bench note: what pIC50 did CC(C)n1cnc2c(F)nc(-c3ccnc(Nc4ccc(N5CCC(C)(N)CC5=O)cc4Cl)n3)cc21 (stereo not drawn) show?
> 8.00

Please look up its pIC50: `COc1nc(-c2nc(Nc3ccc(N4CCN(CCF)CC4)cn3)ncc2F)cc2c1ncn2C(C)C`
7.00 to 8.00

Any idea what pIC50 was measured for `Cc1nn2ccc(-c3ccnc(Nc4ccc(S(N)(=O)=O)nc4)n3)cc2c1C(C)C` ?
7.00 to 8.00

Fill blank: measured pIC50 of the compound `COc1nc(-c2ccnc(Nc3ccc(N4CCN(C5COC5)CC4=O)cn3)n2)cc2c1ncn2C(C)C` is ____.
> 8.00

Which pIC50 reading was recorded for the compound `O=C1COCCN1c1ccc(Nc2ncc(F)c(-c3ccn4ncc(C5CCCC5)c4c3)n2)nc1` ?
7.00 to 8.00

Record request: pIC50 value, item CNC1CCN(c2ccc(Nc3nccc(-c4ccn5ncc(C(C)C)c5c4)n3)nc2)C(=O)C1 (stereo not drawn) [Synthetic Example 204]
> 8.00

What value of pIC50 has been reported for the following compound? CC(C)c1cnn2ccc(-c3ccnc(Nc4ccc(C(=O)N5CCC(O)C5)cc4)n3)cc12 (stereo not drawn)
> 8.00

Report pIC50 for CC(C)n1cnc2c(F)nc(-c3nc(Nc4ccc(N5CCCC(N(C)C)C5=O)cn4)ncc3F)cc21 (stereo not drawn) please.
> 8.00
